Target: human ether-à-go-go-related gene (hERG) potassium channel (human);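 further: peak tail current of the secondary pulse compared with the same well before compound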
Sequence (Q12809 whole entry, looked up): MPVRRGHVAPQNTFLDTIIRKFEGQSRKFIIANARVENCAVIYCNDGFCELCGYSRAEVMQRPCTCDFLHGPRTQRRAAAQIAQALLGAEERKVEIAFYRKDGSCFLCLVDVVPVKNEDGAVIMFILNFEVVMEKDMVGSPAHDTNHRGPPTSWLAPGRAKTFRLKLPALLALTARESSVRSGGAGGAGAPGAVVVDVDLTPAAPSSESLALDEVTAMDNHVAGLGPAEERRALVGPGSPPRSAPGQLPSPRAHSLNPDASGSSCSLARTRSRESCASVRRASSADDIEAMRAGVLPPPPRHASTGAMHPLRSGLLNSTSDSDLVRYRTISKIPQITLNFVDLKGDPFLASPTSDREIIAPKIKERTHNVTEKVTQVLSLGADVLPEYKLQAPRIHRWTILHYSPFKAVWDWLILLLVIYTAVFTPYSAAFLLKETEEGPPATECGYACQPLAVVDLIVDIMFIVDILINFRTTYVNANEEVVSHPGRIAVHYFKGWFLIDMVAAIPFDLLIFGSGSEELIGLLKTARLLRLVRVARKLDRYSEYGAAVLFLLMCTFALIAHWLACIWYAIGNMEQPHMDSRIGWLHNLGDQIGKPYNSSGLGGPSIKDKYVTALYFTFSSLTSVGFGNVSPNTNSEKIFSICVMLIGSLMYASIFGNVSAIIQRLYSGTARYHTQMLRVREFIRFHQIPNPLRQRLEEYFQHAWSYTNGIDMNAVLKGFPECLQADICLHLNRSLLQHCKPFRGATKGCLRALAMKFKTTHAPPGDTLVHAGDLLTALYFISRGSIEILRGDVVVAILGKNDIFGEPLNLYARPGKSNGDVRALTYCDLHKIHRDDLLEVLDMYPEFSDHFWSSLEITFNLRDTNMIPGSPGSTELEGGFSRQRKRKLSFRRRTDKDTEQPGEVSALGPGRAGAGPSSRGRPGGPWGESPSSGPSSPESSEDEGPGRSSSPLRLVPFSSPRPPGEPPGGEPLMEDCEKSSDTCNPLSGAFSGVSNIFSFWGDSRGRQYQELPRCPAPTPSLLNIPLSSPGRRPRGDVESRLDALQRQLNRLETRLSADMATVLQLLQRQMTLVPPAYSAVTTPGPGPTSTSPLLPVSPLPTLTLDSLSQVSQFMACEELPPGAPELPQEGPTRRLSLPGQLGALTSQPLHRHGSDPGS
Assay: primary screen, population patch clamp on CHO cells stably expressing hERG; higher = less effect of the substance
Experimental: Briefly, Chinese hamster ovary (CHO) cells stably expressing the hERG channel were dislodged from tissue culture flasks and dispensed into PPC plates. […] During the recording, background leak currents were estimated by a 100 ms step to -80 mV from an initial holding potential of -70 mV and subtracted from the subsequent current measurement. The campaign was conducted in two phases using slight differences in recording protocol. […]
The campaign covered roughly 310,000 compounds. About 14,000 (4.5%) showed an effect of 50% or more. The effect is printed as a negative number. The sample as a whole holds a higher share of strong results than the screen did.
// label = 1 if hERG current change (%, negative = inhibition) at 10uM is not less than -40%, otherwise 0

compound	cat
COc1ccc(CCn2c(=N)c(C(=O)NC3CCCC3)cc3c(=O)n4ccccc4nc32)cc1	0
Cl.O=C(O)c1ccc(Nc2c3ccccc3nc3ccccc23)cc1	1
CCOc1ccc(Nc2c3ccccc3nc3ccccc23)cc1	0
CC(=O)Oc1ccccc1N1C(=O)c2ccc(C(=O)O)cc2C1=O	1
COc1cc(NC(=O)c2c3c(nc4ccccc24)CCC3)cc(OC)c1	1
COc1ccc(NC(=O)c2cc3c(=O)n4ccccc4nc3n2C)c(OC)c1	1
O=[N+]([O-])c1cc([N+](=O)[O-])c2nonc2c1Nc1ccc(O)cc1	0
CCCCCOc1ccc2oc(=O)c3c(c2c1)CCCN3C(=O)CN1CCCC(C(=O)OCC)C1 (stereo not shown)	1
CC(=O)Oc1ccc2oc(=O)c3c(c2c1)CCCN3C(=O)CN1CCN(c2ncccn2)CC1	1
COc1cc(OC)cc(C(=O)N[C@H](C(=O)Nc2ccc(NC(C)=O)cc2)C(C)C)c1	1
COc1ccc(CCn2c(=N)c(C(=O)NC3CCCCC3)cc3c(=O)n4ccccc4nc32)cc1	0
O=C(O)c1cc(-c2ccccc2)nc(-c2ccccc2)c1	1
CC(=O)Nc1ccc(Nc2cc(C)c3ccccc3n2)cc1	1
Cc1cc(S(=O)(=O)N2CCOCC2)ccc1OCC(=O)Nc1cccc(C(F)(F)F)c1	1
N=c1c(C(=O)NC2CCCCC2)cc2c(=O)n3ccccc3nc2n1CCc1ccccc1	0
CC(CNC(=O)c1cccs1)c1ccc([N+](=O)[O-])cc1 (stereo not shown)	1
COc1ccc(Nc2c3c(nc4ccccc24)CCC3)cc1.Cl	0
COc1ccc(CCN(C)CCC(=O)Nc2cc(C)ccc2C)cc1OC	0
CCOC(=O)C1(C(F)(F)F)N=C(N(C)C)OC(N(C)C)=N1	1
COc1cccc(/C=N/NC(=O)CNC(=O)c2ccc(S(=O)(=O)N3CCOCC3)cc2)c1OC	1
CCOc1ccc(CN2CCN(Cc3ccc4cc(F)ccc4n3)CC2CCO)cc1 (stereo not shown)	0
O=C(NCc1ccc(F)cc1)c1c2c(nc3ccccc13)CCC2	1
COc1ccc(CCN(C)CC(=O)Nc2ccc(F)c(Cl)c2)cc1OC	1
COc1ccccc1OCCNC(=O)c1cc(=O)[nH]c2ccccc12	1
CCCOc1ccc2oc(=O)c3c(c2c1)CCCN3C(=O)CN1CCN(c2ncccn2)CC1	0
CCCOc1ccc2oc(=O)c3c(c2c1)CCCN3C(=O)CN1CCc2ccccc2C1	1
CCCOc1ccc(C(=O)Nc2ccc(N3CCN(C(=O)c4ccco4)CC3)cc2)cc1	1
COc1ccc(Nc2c3ccccc3nc3ccccc23)cc1	0
Fc1ccc(Nc2c3c(nc4ccccc24)CCC3)cc1	0
COc1ccc(Nc2nc(-c3ccccc3)c3ccccc3n2)cc1	1
COc1cc2nc(-c3cccs3)oc(=O)c2cc1OC	1
O=S(=O)(Nc1cccc(-n2cnnn2)c1)c1ccccc1C(F)(F)F	1
COc1ccc(S(=O)(=O)N2CCOCC2)cc1NC(=O)c1ccc2c(c1)OCO2	1
CNC(=O)c1ccc(-c2cc(C(F)(F)F)nn2C)s1	1
c1ccc(-c2noc(CC3CCCCC3)n2)nc1	1
O=C(c1ccco1)N1CCN(CC(=O)N2CCCc3c2c(=O)oc2ccc(O)cc32)CC1	1
COCCCNCC(O)COc1cccc2[nH]c(C)cc12 (stereo not shown)	1
Cc1ccc(CN2CCN(Cc3ccc4cc(F)ccc4n3)CC2CCO)o1 (stereo not shown)	1
O=C(CCCCCl)Nc1c2c(nc3ccccc13)CCC2	1
COc1cc(OC)cc(C(=O)N[C@H](C(=O)Nc2cc(C)cc(C)c2)C(C)C)c1	0
